Entries annotated with measured abundance fitness
B1: Membrane-associated guanylate kinase, WW and PDZ domain-containing protein 1, residues 352 to 401; numbered along this chain, Q96QZ7 (parent)
chain: TEELDSELELPAGWEKIEDPVYGIYYVDHINRKTQYENPVLEAKRKKQLE

- Variants of: B1
- method.description: abundance fitness (aPCA) (normalised: wild type 0, dead -1); higher = more abundant; growth selection in yeast, the domain comes from the species named
- reported.conditions: Homo sapiens
reported.metric: abundance fitness

mutation.key	reported.metric	experimental.result
G13M	abundance fitness	-0.448
V21K	abundance fitness	0.012
Y36K	abundance fitness	-0.058
L8Q	abundance fitness	-0.016
L8D	abundance fitness	-0.505
G23V	abundance fitness	-1.2
R32C	abundance fitness	-0.168
I17M	abundance fitness	-0.041
